Cited source: patent US11179400B2

# System: Human RSV-A (“Long” strain)
# assay method text: RSV in vitro cytoprotection assay in HEp-2 cells (ATPlite read-out)
# Format: cell-based
# run parameters: human respiratory syncytial virus, 96 h; HEp-2 cells, genotype A “Long” strain RSV, 4-day incubation, ATPlite; read-out: Human RSV-A (“Long” strain) EC50
Measured EC50, listed per entry for reference.

Previously resolved entries follow.
Cc1ccc(C(=O)Nc2ccc(C(=O)N3CCC(c4ccc(C(=O)Nc5c(C)cccc5F)s4)=Cc4ccccc43)cc2)c(N2CC3(CCOCC3)C2)n1 [Example 8]    10 to 50 nM
Cc1ccc(C(=O)Nc2ccc(C(=O)N3CCC(c4ccc(C(=O)NC56CC(C5)C6)s4)=Cc4ccccc43)cc2)c(N2CC3(CCOCC3)C2)n1 [Example 11]    10 to 50 nM
Cc1cnc(N2CC3(CCOCC3)C2)c(C(=O)Nc2ccc(C(=O)N3CCC(c4ccc(C(=O)NC56CC(C5)C6)s4)=Cc4ccccc43)cc2)c1 [Example 5]    10 to 50 nM
Cc1ccc(C(=O)Nc2ccc(C(=O)N3CCC(c4ccc(C(=O)NC5CC(F)(F)C5)s4)=Cc4ccccc43)cc2)c(N2CC3(CCOCC3)C2)n1 [Example 9]    10 to 50 nM

Request: Read off the recorded EC50 for Cc1cnc(N2CC3(CCOCC3)C2)c(C(=O)Nc2ccc(C(=O)N3CCC(c4cc(C(=O)NC5CC5)cs4)=Cc4ccccc43)cc2)c1 [Example 12]
Response: 10 to 50 nM

Request: Read off the recorded EC50 for Cc1cnc(N2CC3(CCOCC3)C2)c(C(=O)Nc2ccc(C(=O)N3CCC(c4ccc(C(=O)NC5CC5)s4)=Cc4ccccc43)cc2)c1 [Example 1]
Response: < 10 nM
